Attribute: LC retention time
experiment notes: HILIC, Merck SeQuant ZIC-pHILIC, 150 × 2.1 mm, 5 µm, 0.1 mL/min, estimated dead time 3.3 min; A: acetonitrile; B: water + 10 mM ammonium carbonate; gradient (min/%B) 0/20 30/80
conditions used: stereoisomer not certain

{"molecule": "CCC(NC(=O)CCC(N)C(=O)O)C(=O)NCC(=O)O (configuration not stated) [Ophthalmic acid]", "LC retention time": "11.2 min"}
{"molecule": "CC(C)CC(=O)OC(CC(=O)[O-])C[N+](C)(C)C (configuration not stated) [Isovaleryl-carnitine]", "LC retention time": "5.4 min"}
{"molecule": "Nc1ncnc2c1ncn2C1OC(COP(=O)(O)O)C(O)C1O (configuration not stated) [AMP]", "LC retention time": "11.5 min"}
{"molecule": "O=C(O)C1(O)CC(O)C(O)C(O)C1 (configuration not stated) [Quinic acid]", "LC retention time": "10.4 min"}
{"molecule": "Nc1nc2c(ncn2C2OC(COP(=O)(O)O)C(O)C2O)c(=O)[nH]1 (configuration not stated) [GMP]", "LC retention time": "14.1 min"}
{"molecule": "NC(CC(=O)O)C(=O)O (configuration not stated) [Aspartate]", "LC retention time": "12.5 min"}
{"molecule": "NC(=O)c1cccnc1 [Nicotinamide]", "LC retention time": "4.7 min"}
{"molecule": "C[N+](C)(C)C(Cc1cnc[nH]1)C(=O)[O-] (configuration not stated) [Trimethyl-histidine (hercynine)]", "LC retention time": "9.7 min"}
{"molecule": "NC1C(O)OC(CO)C(O)C1O (configuration not stated) [Glucosamine]", "LC retention time": "11.6 min"}
{"molecule": "NC(CO)Cc1cnc[nH]1 (configuration not stated) [Histidinol]", "LC retention time": "16.3 min"}
{"molecule": "NC(=O)c1ccc[n+](C2OC(COP(=O)(O)OP(=O)(O)OCC3OC(n4cnc5c(N)ncnc54)C(OP(=O)(O)O)C3O)C(O)C2O)c1 (configuration not stated) [NADP+]", "LC retention time": "14.4 min"}
{"molecule": "CN(CC(=O)O)C(N)=NP(=O)(O)O [Phosphocreatine]", "LC retention time": "12.7 min"}
{"molecule": "CC(O)(CC(=O)O)CC(=O)SCCNC(=O)CCNC(=O)C(O)C(C)(C)COP(=O)(O)OP(=O)(O)OCC1OC(n2cnc3c(N)ncnc32)C(O)C1OP(=O)(O)O (configuration not stated) [HMG-CoA]", "LC retention time": "13.2 min"}
{"molecule": "NCCCC(N)C(=O)O (configuration not stated) [Ornithine]", "LC retention time": "20.8 min"}
{"molecule": "C[N+](C)(C)C(Cc1c[nH]c2ccccc12)C(=O)[O-] (configuration not stated) [Trimethyl-tryptophan (hypaphorine)]", "LC retention time": "6 min"}
{"molecule": "O=C(O)CCC(=O)O [Succinate]", "LC retention time": "12.6 min"}
{"molecule": "C[N+](C)(C)CCOP(=O)([O-])OCC(O)CO (configuration not stated) [Glycerophosphocholine]", "LC retention time": "12.1 min"}
{"molecule": "O=c1[nH]c(=O)c2[nH]c(=O)[nH]c2[nH]1 [Urate]", "LC retention time": "10.7 min"}
{"molecule": "O=P(O)(O)OCC1OC(OP(=O)(O)OP(=O)(O)O)C(O)C1O [PRPP (5-Phospho-alpha-D-ribose 1-diphosphate)]", "LC retention time": "16.5 min"}
{"molecule": "O=C(O)c1cccnc1C(=O)O [Quinolinic acid]", "LC retention time": "12.7 min"}
{"molecule": "CSc1ncc(CC(C(=O)[O-])[N+](C)(C)C)[nH]1 (configuration not stated) [S-Methyl-ergothioneine]", "LC retention time": "7.9 min"}
{"molecule": "OCC1OC(OC2OC(CO)C(O)C(O)C2O)C(O)C(O)C1O (configuration not stated) [Trehalose]", "LC retention time": "13.6 min"}

----------
experiment notes: HILIC, Merck SeQuant ZIC-pHILIC, 150 × 2.1 mm, 5 µm, 0.1 mL/min, estimated dead time 3.3 min; A: acetonitrile; B: water + 10 mM ammonium carbonate; gradient (min/%B) 0/20 30/80
conditions used: stereoisomer not certain
Recorded measurements of LC retention time, one per entry
property name: LC retention time (min)

{"compound": "CC(C)(COP(=O)(O)OP(=O)(O)OCC1OC(n2cnc3c(N)ncnc32)C(O)C1OP(=O)(O)O)C(O)C(=O)NCCC(=O)NCCS (configuration not stated) [CoA]", "property name": "LC retention time", "value": 11.7}
{"compound": "Nc1ncnc2c1ncn2C1OC(COP(=O)(O)OP(=O)(O)O)C(O)C1O (configuration not stated) [ADP]", "property name": "LC retention time", "value": 12.4}
{"compound": "Nc1ccn(C2OC(CO)C(O)C2O)c(=O)n1 (configuration not stated) [Cytidine]", "property name": "LC retention time", "value": 9.1}
{"compound": "Nc1ncnc2c1ncn2C1OC(CSCCC([NH3+])C(=O)[O-])C(O)C1O (configuration not stated) [S-Adenosyl-homocysteine]", "property name": "LC retention time", "value": 11.2}
{"compound": "CCCCCC(=O)OC(CC(=O)[O-])C[N+](C)(C)C (configuration not stated) [Hexanoyl-carnitine]", "property name": "LC retention time", "value": 4.8}
{"compound": "Nc1c(C(=O)NC(CC(=O)O)C(=O)O)ncn1C1OC(COP(=O)(O)O)C(O)C1O (configuration not stated) [SAICAR]", "property name": "LC retention time", "value": 17.1}
{"compound": "O=C(O)CNC(=O)c1ccccc1 [Hippurate]", "property name": "LC retention time", "value": 4.4}
{"compound": "CNCCCCC(N)C(=O)O (configuration not stated) [Methyl-lysine]", "property name": "LC retention time", "value": 22.1}
{"compound": "Nc1ccc(C(=O)O)cc1 [4-Aminobenzoate]", "property name": "LC retention time", "value": 7.2}
{"compound": "NC(CCC(=O)NC(CSSCC(NC(=O)CCC(N)C(=O)O)C(=O)NCC(=O)O)C(=O)NCC(=O)O)C(=O)O (configuration not stated) [Glutathione disulfide (GSSG)]", "property name": "LC retention time", "value": 15}
{"compound": "NC(Cc1cnc[nH]1)C(=O)O (configuration not stated) [Histidine]", "property name": "LC retention time", "value": 12}
{"compound": "CC(=O)NC(CCC[NH+]=C(N)N)C(=O)[O-] (configuration not stated) [N-Acetyl-arginine]", "property name": "LC retention time", "value": 12.3}
{"compound": "Cn1c(N)nc2c(ncn2C2OC(CO)C(O)C2O)c1=O (configuration not stated) [1-Methyl-guanosine]", "property name": "LC retention time", "value": 7.1}
{"compound": "NC(=NCCCC(N)C(=O)O)NC(CC(=O)O)C(=O)O (configuration not stated) [Arginino-succinate]", "property name": "LC retention time", "value": 14.2}
{"compound": "C[N+]1(C)CCCC1C(=O)[O-] (configuration not stated) [Dimethyl-proline (stachydrine)]", "property name": "LC retention time", "value": 7.9}
{"compound": "Nc1ccn(C2OC(COP(=O)(O)O)C(O)C2O)c(=O)n1 (configuration not stated) [CMP]", "property name": "LC retention time", "value": 13.2}
{"compound": "O=C(O)C=CC(=O)O [Fumarate]", "property name": "LC retention time", "value": 13.1}
{"compound": "COC(=O)C(N)CCC(=O)O (configuration not stated) [Glutamate methyl ester]", "property name": "LC retention time", "value": 7.1}
{"compound": "CCC(C)C(NC(C)=O)C(=O)O (configuration not stated) [N-Acetyl-(iso)leucine]", "property name": "LC retention time", "value": 4.4}
{"compound": "O=P(O)(O)OCC1OC(O)(CO)C(O)C1O (configuration not stated) [Fructose-6-phosphate]", "property name": "LC retention time", "value": 13.3}
{"compound": "O=C(O)C1CCCN1 (configuration not stated) [Proline]", "property name": "LC retention time", "value": 10.2}
{"compound": "CCCCCCCCCC(=O)OC(CC(=O)[O-])C[N+](C)(C)C (configuration not stated) [Decanoyl-carnitine]", "property name": "LC retention time", "value": 4.2}
{"compound": "NCCCCC(N)C(=O)O (configuration not stated) [Lysine]", "property name": "LC retention time", "value": 23.3}
{"compound": "O=CC(O)COP(=O)(O)O (configuration not stated) [Glyceraldehyde-3-phosphate]", "property name": "LC retention time", "value": 13.2}
{"compound": "C[N+](C)(C)CCCCC(N)C(=O)[O-] (configuration not stated) [Trimethyl-lysine]", "property name": "LC retention time", "value": 20.7}
{"compound": "CC(=O)SCCNC(=O)CCNC(=O)C(O)C(C)(C)COP(=O)(O)OP(=O)(O)OCC1OC(n2cnc3c(N)ncnc32)C(O)C1OP(=O)(O)O (configuration not stated) [Acetyl-CoA]", "property name": "LC retention time", "value": 10.5}
{"compound": "NC(CCC(=O)O)C(=O)O (configuration not stated) [Glutamate]", "property name": "LC retention time", "value": 12.1}
{"compound": "O=C(O)C(O)C(O)C(O)C(O)CO (configuration not stated) [Gluconate]", "property name": "LC retention time", "value": 11.4}
{"compound": "CC(=O)N[C@H]1C(O)O[C@H](CO)[C@@H](O)[C@@H]1O (stereo partly drawn) [N-Acetyl-D-glucosamine]", "property name": "LC retention time", "value": 9.3}
{"compound": "CCCC(=O)OC(CC(=O)[O-])C[N+](C)(C)C (configuration not stated) [Butyryl-carnitine]", "property name": "LC retention time", "value": 6.2}
{"compound": "Cn1cnc(CC(N)C(=O)O)c1 (configuration not stated) [Methyl-histidine]", "property name": "LC retention time", "value": 10.2}
{"compound": "C[N+](C)(C)C(Cc1cnc([S-])[nH]1)C(=O)O (configuration not stated) [Ergothioneine]", "property name": "LC retention time", "value": 12.1}
{"compound": "CCC(C)C(N)C(=O)O (configuration not stated) [Isoleucine]", "property name": "LC retention time", "value": 8.6}
{"compound": "C[N+](C)(C)CC(O)CC(=O)[O-] (configuration not stated) [Carnitine]", "property name": "LC retention time", "value": 10.9}
{"compound": "Cc1cc2nc3c(=O)[nH]c(=O)nc-3n(CC(O)C(O)C(O)COP(=O)(O)OP(=O)(O)OCC3OC(n4cnc5c(N)ncnc54)C(O)C3O)c2cc1C (configuration not stated) [FAD]", "property name": "LC retention time", "value": 9.4}
{"compound": "NC(=O)c1ccc[n+](C2OC(COP(=O)(O)OP(=O)(O)OCC3OC(n4cnc5c(N)ncnc54)C(O)C3O)C(O)C2O)c1 (configuration not stated) [NAD+]", "property name": "LC retention time", "value": 11.9}
{"compound": "NC(=O)C1=CN(C2OC(COP(=O)(O)OP(=O)(O)OCC3OC(n4cnc5c(N)ncnc54)C(OP(=O)(O)O)C3O)C(O)C2O)C=CC1 (configuration not stated) [NADPH]", "property name": "LC retention time", "value": 14.8}
